TEST_NAME: protein stability index of a GFP-peptide fusion (yeast GPS) (PSI 1-4); higher = more stable; sorted into four equal gates, so the index is relative within each strain
STATED_CONDITIONS: san1∆
Assign class by protein stability index: not lower than 3 means MET; lower than 3 means NOT MET.

Worked set:
{"QUERY_SEQUENCE": "ALPNIENDIIKLSDSKT [BRR2]", "ASSIGNED_CATEGORY": "NOT MET"}
{"QUERY_SEQUENCE": "TPPVVVVGVVGYVETPR [RPL3]", "ASSIGNED_CATEGORY": "NOT MET"}
{"QUERY_SEQUENCE": "KNPKFSNAFYSVLRDTL [SMC4]", "ASSIGNED_CATEGORY": "NOT MET"}
{"QUERY_SEQUENCE": "KGSRQCRVCSSHTGLIR [RPS29A]", "ASSIGNED_CATEGORY": "NOT MET"}

Ask | Does the reported protein stability index for YQELFIQPKNSDDQQEA [YML103C/NUP188] fall at or above the 3 mark?
Reply | NOT MET

Ask | Does the reported protein stability index for TAAEKKERLTKEAAAIA [RPL8B] fall at or above the 3 mark?
Reply | NOT MET

Ask | Does the reported protein stability index for MSACVGQQSVEGKRIAF [RPO21] fall at or above the 3 mark?
Reply | NOT MET

Ask | Does the reported protein stability index for QFVPELKEFTAKLRKEL [FAS2] fall at or above the 3 mark?
Reply | NOT MET

Ask | Does the reported protein stability index for GLTTVWLLSALGNSIVK [REC8] fall at or above the 3 mark?
Reply | NOT MET

Ask | Does the reported protein stability index for SMILIQQTEKLNPQVAD [RPN2] fall at or above the 3 mark?
Reply | NOT MET

Ask | Does the reported protein stability index for MKLDDSSKTRNVLNRIQ [ITC1] fall at or above the 3 mark?
Reply | NOT MET

Ask | Does the reported protein stability index for IYNNIVSNIEGILDEIM [RGR1] fall at or above the 3 mark?
Reply | NOT MET

----------
TEST_NAME: protein stability index of a GFP-peptide fusion (yeast GPS) (PSI 1-4); higher = more stable; sorted into four equal gates, so the index is relative within each strain
STATED_CONDITIONS: ubr1∆
Entries and their measured protein stability index follow.
Respond numerically, and do not add a unit to the figure.

{"QUERY_SEQUENCE": "TPPVVVVGVVGYVETPR [RPL3]", "protein stability index": 2.86}
{"QUERY_SEQUENCE": "SDKTIVPTSIQTKRWPT [SIN4]", "protein stability index": 2.77}
{"QUERY_SEQUENCE": "SSLNLEDTPANDSSATR [RPB8]", "protein stability index": 3.08}
{"QUERY_SEQUENCE": "RSIRGSFTSQGTISIQL [MTR3]", "protein stability index": 2.61}
{"QUERY_SEQUENCE": "NIMSASGGLFGNQQQQL [YGL172W/NUP49]", "protein stability index": 3.2}
{"QUERY_SEQUENCE": "FEYSKYRPLTPSSEVYS [RRP6]", "protein stability index": 2.83}

# ---- query sequence ----
For this sequence ( LINLAKTRVGSVTAQVY [RPC82] ), measured protein stability index is 1.45

----------
Entries and their measured protein stability index follow.
TEST_NAME: protein stability index of a GFP-peptide fusion (yeast GPS) (PSI 1-4); higher = more stable; sorted into four equal gates, so the index is relative within each strain
STATED_CONDITIONS: pdr5∆
Respond numerically, and do not add a unit to the figure.

See these solved cases before continuing.
{"QUERY_SEQUENCE": "TSRVTGILLLDSLIQLA [YJL039C/NUP192]", "REPORTED_RESULT": 1.77}
{"QUERY_SEQUENCE": "IRDLEKLYDKTENDIKA [RPT4]", "REPORTED_RESULT": 2.6}
{"QUERY_SEQUENCE": "WFCPCHGSHYDISGRIR [RIP1]", "REPORTED_RESULT": 2.31}
{"QUERY_SEQUENCE": "KLSEIILNINNSTSKNT [SWI1]", "REPORTED_RESULT": 2.92}
{"QUERY_SEQUENCE": "VTDKYTAKKTNRSAYDS [YDL088C/ASM4]", "REPORTED_RESULT": 3.26}

# ---- query sequence ----
For this sequence ( LLAEYDNIYRNLQKIDK [MED4] ), measured protein stability index is 2.69

----------
TEST_NAME: protein stability index of a GFP-peptide fusion (yeast GPS) (PSI 1-4); higher = more stable; sorted into four equal gates, so the index is relative within each strain
STATED_CONDITIONS: pdr5∆
OBSERVATION_TYPE: protein stability index
Respond numerically, and do not add a unit to the figure.

See these solved cases before continuing.
{"QUERY_SEQUENCE": "KTDEVIILGTNLYDGAE [BRR2]", "OBSERVATION_TYPE": "protein stability index", "REPORTED_RESULT": 3.12}
{"QUERY_SEQUENCE": "QQQQQQQQPQPQYNMNM [PGD1]", "OBSERVATION_TYPE": "protein stability index", "REPORTED_RESULT": 2.79}
{"QUERY_SEQUENCE": "YSVLLESPLSVAIQQGD [YML103C/NUP188]", "OBSERVATION_TYPE": "protein stability index", "REPORTED_RESULT": 1.16}
{"QUERY_SEQUENCE": "NSDLEFNTFWDEKGNEI [ARP9]", "OBSERVATION_TYPE": "protein stability index", "REPORTED_RESULT": 3.25}
{"QUERY_SEQUENCE": "LHKRLHGVSFKKRAPRA [RPL31A]", "OBSERVATION_TYPE": "protein stability index", "REPORTED_RESULT": 2.73}
{"QUERY_SEQUENCE": "AYAQVEIQPRANIQLDF [FAS2]", "OBSERVATION_TYPE": "protein stability index", "REPORTED_RESULT": 3.06}
{"QUERY_SEQUENCE": "MVKGLLKSFTESTAGSA [ECM29]", "OBSERVATION_TYPE": "protein stability index", "REPORTED_RESULT": 2.97}
{"QUERY_SEQUENCE": "KRYANHTQDIIGGMRVD [RET1]", "OBSERVATION_TYPE": "protein stability index", "REPORTED_RESULT": 3.41}

For this sequence ( AGGAADCQFWETWLGSQ [PRE2] ), measured protein stability index is 3.19

For this sequence ( QDHFHRLNYLYQISAYQ [RPR2] ), measured protein stability index is 2.43

For this sequence ( LRYVIMKNPDVEFCGYS [RPC19] ), measured protein stability index is 2.07

For this sequence ( NIKSSISNGNLATGPNL [YOR098C/NUP1] ), measured protein stability index is 3.18

For this sequence ( LMAQIFFGPTYYQRLRH [RPB2] ), measured protein stability index is 1.81

For this sequence ( KGSRQCRVCSSHTGLVR [RPS29B] ), measured protein stability index is 2.79

----------
TEST_NAME: protein stability index of a GFP-peptide fusion (yeast GPS) (PSI 1-4); higher = more stable; sorted into four equal gates, so the index is relative within each strain
STATED_CONDITIONS: pdr5∆
OBSERVATION_TYPE: protein stability index
Respond numerically, and do not add a unit to the figure.

See these solved cases before continuing.
{"QUERY_SEQUENCE": "NISRDFQSYIVSSLPGS [COR1]", "protein stability index": 2.14}
{"QUERY_SEQUENCE": "IVVQLNGRLNKCGVISP [RPS22A]", "protein stability index": 3.35}
{"QUERY_SEQUENCE": "IPLDNYDDFIYLSDLKQ [PCI8]", "protein stability index": 2.04}

For this sequence ( SFLHVDDKLAYIRVNHA [POP8] ), measured protein stability index is 2.29

----------
TEST_NAME: protein stability index of a GFP-peptide fusion (yeast GPS) (PSI 1-4); higher = more stable; sorted into four equal gates, so the index is relative within each strain
STATED_CONDITIONS: pdr5∆
Entries and their measured protein stability index follow.

{"QUERY_SEQUENCE": "SLNLQYVNYEISTAKAW [YML103C/NUP188]", "protein stability index": 2.93}

For this sequence ( SKAFKESSDFGAIILTK [SRP54] ), measured protein stability index is 1.57

For this sequence ( NIDTITDAMTESQPKQT [MCD1] ), measured protein stability index is 3.02

For this sequence ( WSSLLNEGLVEYIDAEE [RPB2] ), measured protein stability index is 3.44
